Value source: the supplement of paper PMC10567573

B1: ZNF449 (parent)
chain: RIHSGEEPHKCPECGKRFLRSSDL

variants of: B1; assay: protein stability index of a GFP-peptide fusion (GPS, HEK-293T) (PSI 1-6); higher = more stable; conditions: c terminus: a fixed tail appended;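 also: lentivirally expressed fusions sorted by FACS into six bins by GFP to DsRed ratio, PSI derived from sequencing read proportions per bin multiplied by bin number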
MEASURED ENDPOINT: protein stability index

>>> endpoint_result("RIHSGEEPHKCPECHKRFLRSSDL [G15H]")
2.87
>>> endpoint_result("RIHSGEEPHKCPECGKAFLRSSDL [R17A]")
3.61
>>> endpoint_result("RIHSGEEPHKCPECIKRFLRSSDL [G15I]")
3.6
>>> endpoint_result("RIHSGDEPHKCPECGKRFLRSSDL [E6D]")
3.25
>>> endpoint_result("RIHSGEHPHKCPECGKRFLRSSDL [E7H]")
3.45
>>> endpoint_result("RIRSGEEPHKCPECGKRFLRSSDL [H3R]")
3.02
